# Test system: barnyardgrass (Echinochloa crus-galli)
# METHOD: Test A preemergence, barnyardgrass
# Assay type: in vivo
# EXPERIMENTAL PARAMETERS: Preemergence, 125 g ai/ha; visual injury, 0 to 100 scale (0 no effect, 100 complete control), approx. 10 days
PROPERTY MEASURED: Plant response rating, Barnyardgrass
Lab note: jot the number down without any unit.

COMPOUND: Cc1cc(C)c(N(S(=O)(=O)C(F)(F)F)S(=O)(=O)C(F)(F)F)cc1C1=NOC2(CCCCC2)C1
SYSTEM UNDER TEST: barnyardgrass (Echinochloa crus-galli)
OBS VALUE: 80
//
COMPOUND: Cc1cc(F)c(C(=O)N2CCCCC2)cc1NS(=O)(=O)C(F)(F)F
SYSTEM UNDER TEST: barnyardgrass (Echinochloa crus-galli)
OBS VALUE: 60
//
COMPOUND: Cc1cc(C)c(C2=NOC3(CCC3)C2)cc1NS(=O)(=O)C(F)(F)F
SYSTEM UNDER TEST: barnyardgrass (Echinochloa crus-galli)
OBS VALUE: 100
//
COMPOUND: Cc1cc(C)c(C(=O)N2CCC3(CCCCC3)CC2)cc1NS(=O)(=O)C(F)(F)F
SYSTEM UNDER TEST: barnyardgrass (Echinochloa crus-galli)
OBS VALUE: 60
//
COMPOUND: CC(=O)N(c1cc(C2=NOC3(CCCC3)C2)c(C)cc1C)S(=O)(=O)C(F)(F)F
SYSTEM UNDER TEST: barnyardgrass (Echinochloa crus-galli)
OBS VALUE: 100

Incoming: // lookup Plant response rating, Barnyardgrass for Cc1cc(Cl)c(C(=O)N(C)C)cc1NS(=O)(=O)C(F)(F)F
Outgoing: 20

Incoming: // lookup Plant response rating, Barnyardgrass for Cc1cc(F)c(C(=O)N2CCOCC2)cc1N(S(=O)(=O)C(F)(F)F)S(=O)(=O)C(F)(F)F
Outgoing: 40

Incoming: // lookup Plant response rating, Barnyardgrass for Cc1cc(Cl)c(C(=O)N2CCOCC2)cc1N(S(=O)(=O)C(F)(F)F)S(=O)(=O)C(F)(F)F
Outgoing: 40

Incoming: // lookup Plant response rating, Barnyardgrass for CC(=O)OCN(c1cc(C2=NOC3(CCCC3)C2)c(C)cc1C)S(=O)(=O)C(F)(F)F
Outgoing: 100
